- method_notes: pharmacokinetic study in neonatal/juvenile FVB mice, intraperitoneal
- Assay type: in vivo
- experimental_setup: male, mouse, ip; plasma; 2 mg/kg i.p. single; juvenile FVB mice
measured_metric: MRT (h)

>  <smiles_repr>
Cc1cn2nc(-c3nc4ccc(N5CCN(C)CC5)cc4c(=O)[nH]3)cc2c(C)n1

>  <measured_metric>
MRT

>  <display_unit>
h

>  <recorded_number>
40.4

$$$$

====

- method_notes: pharmacokinetic study in neonatal/juvenile FVB mice, intraperitoneal
- Type: in vivo
- experimental_setup: male, mouse, ip; plasma; 0.6 mg/kg i.p. single; juvenile FVB mice
measured_metric: MRT (h)

>  <molecule>
Cc1cn2nc(-c3nc4ccc(N5CCN(C)CC5)cc4c(=O)[nH]3)cc2c(C)n1 [TEC-1]

>  <recorded_number>
10.7

$$$$

====

- method_notes: pharmacokinetic study in adult wild type FVB mice, oral
- Format: in vivo
- experimental_setup: male, mouse; plasma; 6 mg/kg oral single; adult FVB mice
- Protocol: TEC-1 was administered at doses of 2, 6, and 20 mg/kg for oral (suspended in 0.5% methyl cellulose aqueous solution) to male FVB mice (aged 8 weeks, 3 mice per a time point). After 0.5–120 h administration, blood and brain samples were collected. Blood samples with heparin were centrifuged for plasma collection. […] The samples were deproteinized with acetonitrile and following by centrifugation, and the supernatants were analyzed by LC/MS/MS to obtain TEC-1 concentrations of the plasma and brain.

>  <smiles_repr>
Cc1cn2nc(-c3nc4ccc(N5CCN(C)CC5)cc4c(=O)[nH]3)cc2c(C)n1

>  <Cmax>
157 ng/mL

$$$$

====

- method_notes: pharmacokinetic study in adult wild type FVB mice, oral
- Assay type: in vivo
- experimental_setup: male, mouse; brain; 6 mg/kg oral single; adult FVB mice
- Experimental: TEC-1 was administered at doses of 2, 6, and 20 mg/kg for oral (suspended in 0.5% methyl cellulose aqueous solution) to male FVB mice (aged 8 weeks, 3 mice per a time point). After 0.5–120 h administration, blood and brain samples were collected. Blood samples with heparin were centrifuged for plasma collection. […] The samples were deproteinized with acetonitrile and following by centrifugation, and the supernatants were analyzed by LC/MS/MS to obtain TEC-1 concentrations of the plasma and brain.

>  <compound>
Cc1cn2nc(-c3nc4ccc(N5CCN(C)CC5)cc4c(=O)[nH]3)cc2c(C)n1 [TEC-1]

>  <Cmax>
195 ng/g

$$$$

====

- method_notes: pharmacokinetic study in neonatal/juvenile FVB mice, intraperitoneal
- Type: in vivo
- experimental_setup: male, mouse, ip; brain; 0.2 mg/kg i.p. single; juvenile FVB mice

>  <smiles_repr>
Cc1cn2nc(-c3nc4ccc(N5CCN(C)CC5)cc4c(=O)[nH]3)cc2c(C)n1

>  <MRT, h>
11.2

$$$$

====

- method_notes: pharmacokinetic study in neonatal/juvenile FVB mice, intraperitoneal
- Format: in vivo
- experimental_setup: male, mouse, ip; brain; 0.6 mg/kg i.p. single; juvenile FVB mice
measured_metric: Cmax

>  <smiles_repr>
Cc1cn2nc(-c3nc4ccc(N5CCN(C)CC5)cc4c(=O)[nH]3)cc2c(C)n1

>  <measured_metric>
Cmax

>  <result>
63.2 ng/g

$$$$

====

- method_notes: pharmacokinetic study in adult wild type FVB mice, oral
- Format: in vivo
- experimental_setup: male, mouse; plasma; 20 mg/kg oral single; adult FVB mice

>  <compound>
Cc1cn2nc(-c3nc4ccc(N5CCN(C)CC5)cc4c(=O)[nH]3)cc2c(C)n1 [TEC-1]

>  <Cmax [ng/mL]>
222

$$$$

====

- method_notes: pharmacokinetic study in neonatal/juvenile FVB mice, intraperitoneal
- Assay type: in vivo
- experimental_setup: male, mouse, ip; plasma; 0.2 mg/kg i.p. single; juvenile FVB mice

>  <compound>
Cc1cn2nc(-c3nc4ccc(N5CCN(C)CC5)cc4c(=O)[nH]3)cc2c(C)n1 [TEC-1]

>  <Tmax / min>
30

$$$$

====

- method_notes: pharmacokinetic study in neonatal/juvenile FVB mice, intraperitoneal
- Format: in vivo
- experimental_setup: male, mouse, ip; plasma; 2 mg/kg i.p. single; juvenile FVB mice

>  <smiles_repr>
Cc1cn2nc(-c3nc4ccc(N5CCN(C)CC5)cc4c(=O)[nH]3)cc2c(C)n1

>  <display_unit>
ng/mL

>  <Cmax>
42

$$$$

====

- tested_on: rat N type calcium channel (Rattus norvegicus, UniProt Q02294)
- Sequence (Q02294 whole entry): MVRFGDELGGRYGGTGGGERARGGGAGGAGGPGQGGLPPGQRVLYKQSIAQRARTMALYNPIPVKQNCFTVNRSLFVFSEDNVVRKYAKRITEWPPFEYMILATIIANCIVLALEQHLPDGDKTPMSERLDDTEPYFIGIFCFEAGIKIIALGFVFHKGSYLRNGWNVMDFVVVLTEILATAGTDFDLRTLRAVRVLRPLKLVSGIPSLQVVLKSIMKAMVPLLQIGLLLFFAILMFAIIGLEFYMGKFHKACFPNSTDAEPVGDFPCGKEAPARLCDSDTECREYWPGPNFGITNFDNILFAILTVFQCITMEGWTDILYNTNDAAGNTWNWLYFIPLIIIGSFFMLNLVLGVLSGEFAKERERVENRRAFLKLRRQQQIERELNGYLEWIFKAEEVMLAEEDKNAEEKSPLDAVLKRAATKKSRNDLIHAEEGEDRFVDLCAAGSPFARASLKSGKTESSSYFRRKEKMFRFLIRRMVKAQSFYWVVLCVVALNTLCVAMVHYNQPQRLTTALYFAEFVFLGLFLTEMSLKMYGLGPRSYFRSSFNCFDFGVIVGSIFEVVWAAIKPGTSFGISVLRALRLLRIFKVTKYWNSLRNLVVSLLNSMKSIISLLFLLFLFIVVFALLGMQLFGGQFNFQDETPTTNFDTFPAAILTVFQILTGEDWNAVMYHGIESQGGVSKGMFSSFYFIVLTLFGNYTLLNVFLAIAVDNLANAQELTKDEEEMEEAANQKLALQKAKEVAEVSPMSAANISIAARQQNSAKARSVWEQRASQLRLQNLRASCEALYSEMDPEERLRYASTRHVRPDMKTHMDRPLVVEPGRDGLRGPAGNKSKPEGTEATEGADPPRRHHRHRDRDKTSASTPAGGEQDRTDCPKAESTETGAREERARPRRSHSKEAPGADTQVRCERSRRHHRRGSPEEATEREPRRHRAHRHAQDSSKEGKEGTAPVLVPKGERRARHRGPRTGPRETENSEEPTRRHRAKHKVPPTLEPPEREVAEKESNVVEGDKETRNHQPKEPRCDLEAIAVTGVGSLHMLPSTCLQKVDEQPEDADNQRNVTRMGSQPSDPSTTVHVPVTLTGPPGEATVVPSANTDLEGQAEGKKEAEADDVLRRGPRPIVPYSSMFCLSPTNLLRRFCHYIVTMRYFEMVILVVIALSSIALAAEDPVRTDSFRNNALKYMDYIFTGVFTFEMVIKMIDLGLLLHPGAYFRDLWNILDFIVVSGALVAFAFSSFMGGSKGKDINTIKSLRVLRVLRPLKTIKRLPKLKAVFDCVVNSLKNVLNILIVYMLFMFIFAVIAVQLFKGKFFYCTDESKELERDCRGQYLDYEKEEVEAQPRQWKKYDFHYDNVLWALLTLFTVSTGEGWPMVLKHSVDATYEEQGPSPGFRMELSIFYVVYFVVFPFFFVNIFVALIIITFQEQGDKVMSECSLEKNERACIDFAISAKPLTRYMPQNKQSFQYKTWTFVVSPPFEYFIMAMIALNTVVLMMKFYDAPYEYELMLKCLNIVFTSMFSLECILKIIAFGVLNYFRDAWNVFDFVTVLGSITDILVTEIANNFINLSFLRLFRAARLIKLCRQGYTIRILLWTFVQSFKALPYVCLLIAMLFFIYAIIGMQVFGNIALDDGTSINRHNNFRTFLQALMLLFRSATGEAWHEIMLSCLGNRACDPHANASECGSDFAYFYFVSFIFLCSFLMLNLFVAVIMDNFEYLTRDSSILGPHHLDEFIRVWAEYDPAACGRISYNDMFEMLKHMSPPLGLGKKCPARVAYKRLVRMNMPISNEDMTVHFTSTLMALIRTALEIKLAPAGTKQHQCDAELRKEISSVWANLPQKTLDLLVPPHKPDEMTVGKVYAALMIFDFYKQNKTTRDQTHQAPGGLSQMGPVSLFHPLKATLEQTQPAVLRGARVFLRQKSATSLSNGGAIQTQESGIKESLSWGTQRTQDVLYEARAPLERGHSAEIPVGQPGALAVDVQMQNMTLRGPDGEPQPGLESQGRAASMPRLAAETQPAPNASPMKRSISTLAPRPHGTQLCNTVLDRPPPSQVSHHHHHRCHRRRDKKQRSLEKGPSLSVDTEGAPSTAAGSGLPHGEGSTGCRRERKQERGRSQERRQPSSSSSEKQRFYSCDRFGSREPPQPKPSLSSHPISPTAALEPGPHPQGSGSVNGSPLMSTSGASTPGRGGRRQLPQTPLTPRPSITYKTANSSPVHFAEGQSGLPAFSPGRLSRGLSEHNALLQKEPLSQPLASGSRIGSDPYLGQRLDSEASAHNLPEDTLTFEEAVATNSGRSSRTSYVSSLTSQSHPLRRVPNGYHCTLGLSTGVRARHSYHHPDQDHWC
- Sequence (P54287 whole entry partner): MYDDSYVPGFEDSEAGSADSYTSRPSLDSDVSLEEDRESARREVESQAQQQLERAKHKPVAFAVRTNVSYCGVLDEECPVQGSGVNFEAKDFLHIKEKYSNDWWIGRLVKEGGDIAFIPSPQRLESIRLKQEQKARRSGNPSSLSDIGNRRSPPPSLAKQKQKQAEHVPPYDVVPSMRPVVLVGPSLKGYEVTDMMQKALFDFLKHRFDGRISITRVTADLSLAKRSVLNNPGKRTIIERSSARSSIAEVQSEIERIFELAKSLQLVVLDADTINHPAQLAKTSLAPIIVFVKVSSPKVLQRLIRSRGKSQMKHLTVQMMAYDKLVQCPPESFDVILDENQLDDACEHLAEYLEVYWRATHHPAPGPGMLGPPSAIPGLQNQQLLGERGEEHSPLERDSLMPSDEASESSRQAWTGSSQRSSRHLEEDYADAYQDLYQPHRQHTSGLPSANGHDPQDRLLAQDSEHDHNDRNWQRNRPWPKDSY
- Sequence (P54290 25-944 partner limits assumed): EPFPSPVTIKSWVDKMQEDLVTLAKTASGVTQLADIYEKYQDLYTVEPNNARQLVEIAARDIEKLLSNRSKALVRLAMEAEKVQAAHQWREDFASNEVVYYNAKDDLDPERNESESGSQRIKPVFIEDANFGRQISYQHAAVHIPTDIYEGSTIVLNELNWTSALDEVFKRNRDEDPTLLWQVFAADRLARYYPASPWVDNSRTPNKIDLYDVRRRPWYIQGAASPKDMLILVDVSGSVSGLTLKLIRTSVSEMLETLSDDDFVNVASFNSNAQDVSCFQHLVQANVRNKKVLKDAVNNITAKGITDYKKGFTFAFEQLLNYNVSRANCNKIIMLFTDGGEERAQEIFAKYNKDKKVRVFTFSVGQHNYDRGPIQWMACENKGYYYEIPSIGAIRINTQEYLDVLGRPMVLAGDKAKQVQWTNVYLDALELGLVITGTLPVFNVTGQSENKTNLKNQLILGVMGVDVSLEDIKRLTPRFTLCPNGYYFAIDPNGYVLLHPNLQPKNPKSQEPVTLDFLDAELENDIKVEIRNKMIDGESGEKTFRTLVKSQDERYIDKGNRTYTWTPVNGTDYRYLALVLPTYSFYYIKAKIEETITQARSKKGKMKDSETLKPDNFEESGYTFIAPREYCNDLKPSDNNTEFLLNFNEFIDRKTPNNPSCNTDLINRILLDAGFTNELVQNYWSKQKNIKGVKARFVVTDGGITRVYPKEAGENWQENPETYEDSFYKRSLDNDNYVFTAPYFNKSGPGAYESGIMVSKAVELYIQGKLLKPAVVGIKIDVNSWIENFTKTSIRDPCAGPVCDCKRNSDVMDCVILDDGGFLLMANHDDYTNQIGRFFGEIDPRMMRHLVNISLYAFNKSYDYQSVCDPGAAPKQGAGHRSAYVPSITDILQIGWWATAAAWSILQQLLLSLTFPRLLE
- Sequence (P54290 945-1091 partner limits assumed): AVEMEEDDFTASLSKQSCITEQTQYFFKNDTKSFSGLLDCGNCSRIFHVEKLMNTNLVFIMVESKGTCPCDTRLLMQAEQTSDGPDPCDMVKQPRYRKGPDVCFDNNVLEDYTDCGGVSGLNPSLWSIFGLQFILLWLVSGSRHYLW
- method_notes: Eurofins selectivity panel: N type calcium channel
pIC50: −log10 of the molar value.

>  <smiles_repr>
Cc1cn2nc(-c3nc4ccc(N5CCN(C)CC5)cc4c(=O)[nH]3)cc2c(C)n1

>  <pIC50>
5.06

$$$$

====

- method_notes: pharmacokinetic study in adult wild type FVB mice, oral
- Type: in vivo
- experimental_setup: male, mouse; brain/plasma; 6 mg/kg oral single; adult FVB mice; read-out: Kp (AUC0–120h ratio)

>  <smiles_repr>
Cc1cn2nc(-c3nc4ccc(N5CCN(C)CC5)cc4c(=O)[nH]3)cc2c(C)n1

>  <Kp>
1.2

$$$$

====

- method_notes: pharmacokinetic study in neonatal/juvenile FVB mice, intraperitoneal
- Format: in vivo
- experimental_setup: male, mouse, ip; brain/plasma; 0.2 mg/kg i.p. single; juvenile FVB mice; read-out: Kp (AUC0–120h ratio)

>  <compound>
Cc1cn2nc(-c3nc4ccc(N5CCN(C)CC5)cc4c(=O)[nH]3)cc2c(C)n1 [TEC-1]

>  <Kp>
5.8

$$$$

====

- method_notes: pharmacokinetic study in neonatal/juvenile FVB mice, intraperitoneal
- Assay type: in vivo
- experimental_setup: male, mouse, ip; brain; 0.2 mg/kg i.p. single; juvenile FVB mice
measured_metric: Tmax (min)

>  <compound>
Cc1cn2nc(-c3nc4ccc(N5CCN(C)CC5)cc4c(=O)[nH]3)cc2c(C)n1 [TEC-1]

>  <measured_metric>
Tmax

>  <recorded_number>
30

$$$$

====

- method_notes: pharmacokinetic study in neonatal/juvenile FVB mice, intraperitoneal
- Format: in vivo
- experimental_setup: male, mouse, ip; plasma; 0.2 mg/kg i.p. single; juvenile (10-day-old) FVB mice; n = 3, pool
- Method: TEC-1 was intraperitoneally administered at doses of 0.2, 0.6, and 2 mg/kg (suspended in saline/0.9% NaCl solution) to male FVB mice (10 days old, 3 mice per a time point). After administration, brain samples and blood samples with heparinized capillary tubes from heart were collected. […] The samples were deproteinized with acetonitrile followed by centrifugation and the supernatants were analyzed by LC/MS/MS to obtain TEC-1 concentrations of the plasma and brain.
measured_metric: Cmax

>  <smiles_repr>
Cc1cn2nc(-c3nc4ccc(N5CCN(C)CC5)cc4c(=O)[nH]3)cc2c(C)n1

>  <result>
2.2 ng/mL

$$$$

====

- method_notes: pharmacokinetic study in neonatal/juvenile FVB mice, intraperitoneal
- Assay type: in vivo
- experimental_setup: male, mouse, ip; brain/plasma; 0.6 mg/kg i.p. single; juvenile FVB mice; read-out: Kp (AUC0–120h ratio)
- Protocol: TEC-1 was intraperitoneally administered at doses of 0.2, 0.6, and 2 mg/kg (suspended in saline/0.9% NaCl solution) to male FVB mice (10 days old, 3 mice per a time point). After administration, brain samples and blood samples with heparinized capillary tubes from heart were collected. […] The samples were deproteinized with acetonitrile followed by centrifugation and the supernatants were analyzed by LC/MS/MS to obtain TEC-1 concentrations of the plasma and brain.

>  <smiles_repr>
Cc1cn2nc(-c3nc4ccc(N5CCN(C)CC5)cc4c(=O)[nH]3)cc2c(C)n1

>  <Kp>
4.8

$$$$

====

- method_notes: pharmacokinetic study in adult wild type FVB mice, oral
- Assay type: in vivo
- experimental_setup: male, mouse; plasma; 20 mg/kg oral single; adult FVB mice

>  <molecule>
Cc1cn2nc(-c3nc4ccc(N5CCN(C)CC5)cc4c(=O)[nH]3)cc2c(C)n1 [TEC-1]

>  <MRT [h]>
48.5

$$$$

====

- method_notes: pharmacokinetic study in adult wild type FVB mice, oral
- Assay type: in vivo
- experimental_setup: male, mouse; plasma; 6 mg/kg oral single; adult FVB mice

>  <smiles_repr>
Cc1cn2nc(-c3nc4ccc(N5CCN(C)CC5)cc4c(=O)[nH]3)cc2c(C)n1

>  <Tmax / h>
3

$$$$

====

- tested_on: human acetylcholinesterase (Homo sapiens)
- Sequence (P22303 32-614): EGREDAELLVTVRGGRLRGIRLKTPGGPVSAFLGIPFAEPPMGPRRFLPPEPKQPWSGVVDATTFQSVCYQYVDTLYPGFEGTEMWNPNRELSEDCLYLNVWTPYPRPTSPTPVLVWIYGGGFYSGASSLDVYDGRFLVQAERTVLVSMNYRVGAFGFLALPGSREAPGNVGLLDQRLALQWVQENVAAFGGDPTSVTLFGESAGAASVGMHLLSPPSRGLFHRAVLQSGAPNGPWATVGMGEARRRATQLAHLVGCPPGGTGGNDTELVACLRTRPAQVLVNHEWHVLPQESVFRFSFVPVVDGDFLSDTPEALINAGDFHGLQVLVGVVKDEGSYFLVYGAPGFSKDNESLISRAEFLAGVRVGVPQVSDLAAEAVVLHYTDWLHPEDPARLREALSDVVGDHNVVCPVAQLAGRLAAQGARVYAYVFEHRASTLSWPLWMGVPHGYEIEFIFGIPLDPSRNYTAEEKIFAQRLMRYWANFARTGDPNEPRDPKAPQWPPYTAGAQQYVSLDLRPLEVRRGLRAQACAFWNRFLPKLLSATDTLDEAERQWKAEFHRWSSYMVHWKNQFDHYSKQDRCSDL
pIC50: −log10 of the molar value.
measured_metric: pIC50

>  <compound>
Cc1cn2nc(-c3nc4ccc(N5CCN(C)CC5)cc4c(=O)[nH]3)cc2c(C)n1 [TEC-1]

>  <recorded_number>
5.92

$$$$

====

- method_notes: pharmacokinetic study in neonatal/juvenile FVB mice, intraperitoneal
- Format: in vivo
- experimental_setup: male, mouse, ip; brain; 2 mg/kg i.p. single; juvenile FVB mice

>  <smiles_repr>
Cc1cn2nc(-c3nc4ccc(N5CCN(C)CC5)cc4c(=O)[nH]3)cc2c(C)n1

>  <MRT [h]>
35.8

$$$$
